- testMethodNotes: Blood plasma concentration reached in in vivo investigations
- measurementSetup: Chlorchinaldol alone, very poorly absorbed, therapeutic effect said to need about 15 bis 20 p/ml, read-out: Konzentration im Blutplasma
valueKind: Cmax

1. Cc1ccc2c(Cl)cc(Cl)c(O)c2n1	≤ 5000 ng/mL

Values were extracted from patent EP0135657B1.
